Molecular target: UniProtKB P04150
Assay: Binding affinity to glucocorticoid receptor (unknown origin) by Lanthascreen TR-FRET competition binding assay
Parameter: pIC50
In simple prose, pIC50 is minus the logarithm base ten of a concentration in moles per litre.

1. O=C(c1ccco1)N1CCCc2cc(NS(=O)(=O)c3ccc4c(c3)CCO4)ccc21
5.71

The reported value for CC(C)(C)c1ccc(S(=O)(=O)Nc2ccc3c(c2)CCCN3C(=O)c2ccco2)cc1 in terms of pIC50 is 6.33

COc1cc(C)c(Cl)cc1S(=O)(=O)Nc1ccc2c(c1)CCCN2C(=O)c1ccc(Cl)cc1 has a reported pIC50 of 5.68

// COc1cc(C)c(Cl)cc1S(=O)(=O)Nc1ccc2c(c1)CCCN2C(C)=O : pIC50 value = 5.50

Query COc1cc(C)c(Cl)cc1S(=O)(=O)Nc1ccc2c(c1)CCCN2C(=O)c1ccc(F)cc1 yields pIC50 of 5.16

----------
Biological target: Glucocorticoid receptor (Homo sapiens, UniProt P04150)
Sequence (P04150 whole entry): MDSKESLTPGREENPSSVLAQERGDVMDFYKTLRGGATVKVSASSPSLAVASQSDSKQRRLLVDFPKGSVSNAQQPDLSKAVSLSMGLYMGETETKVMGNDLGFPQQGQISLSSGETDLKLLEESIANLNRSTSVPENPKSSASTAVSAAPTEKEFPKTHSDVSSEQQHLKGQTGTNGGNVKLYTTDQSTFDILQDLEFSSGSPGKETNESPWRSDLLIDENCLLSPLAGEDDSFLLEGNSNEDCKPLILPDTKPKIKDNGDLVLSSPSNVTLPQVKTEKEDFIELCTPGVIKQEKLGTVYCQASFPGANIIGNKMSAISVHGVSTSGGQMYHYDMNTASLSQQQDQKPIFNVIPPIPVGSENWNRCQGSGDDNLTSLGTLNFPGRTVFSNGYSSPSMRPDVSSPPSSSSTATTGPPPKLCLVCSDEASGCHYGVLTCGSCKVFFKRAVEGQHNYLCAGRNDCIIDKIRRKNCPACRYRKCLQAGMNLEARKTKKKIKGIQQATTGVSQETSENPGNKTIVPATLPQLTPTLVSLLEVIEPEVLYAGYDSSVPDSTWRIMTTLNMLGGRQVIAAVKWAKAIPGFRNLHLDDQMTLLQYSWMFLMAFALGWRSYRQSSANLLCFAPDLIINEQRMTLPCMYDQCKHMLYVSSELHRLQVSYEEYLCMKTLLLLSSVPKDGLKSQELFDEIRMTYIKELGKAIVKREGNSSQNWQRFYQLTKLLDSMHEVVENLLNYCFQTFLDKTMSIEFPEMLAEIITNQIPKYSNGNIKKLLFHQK
Test: Modulation of glucocorticoid receptor (unknown origin) transfected in human HeLa cells assessed as transrepression by measuring inhibition of PMA-induced AP-1 signalling incubated for 18 hrs by dual-luciferase reporter based assay
Format: cell-based
Parameter: IC50 (µM)
State the answer as a number, implicitly in µM.

IC50 reported for this compound COc1cc(C)c(C)cc1S(=O)(=O)Nc1ccc2c(c1)CCCN2C(=O)c1ccccc1 : 1.14

Value of IC50 reported for the compound O=C(c1ccco1)N1CCCc2cc(NS(=O)(=O)c3ccc(-c4ccccc4)cc3)ccc21 is 7.22

----------
Target: Glucocorticoid receptor (Homo sapiens)
Test: Binding affinity to glucocorticoid receptor (unknown origin) by Lanthascreen TR-FRET competition binding assay
Overview of recorded IC50 for various molecules
The reply should contain only the number, in nM.

Example entries and their recorded answers appear below.
1. COc1cc(C)c(Cl)cc1S(=O)(=O)Nc1ccc2c(c1)CCCN2C(=O)c1ccco1
5020
2. O=C(c1ccco1)N1CCCc2cc(NS(=O)(=O)c3ccc4ccccc4c3)ccc21
1120
3. C#CC1=C(SCC(=O)c2ccccc2)NC(C)=C(C(C)=O)C1c1cccs1 (centres undefined)
1860

// recorded IC50 for COc1cc(C)c(Cl)cc1S(=O)(=O)Nc1ccc2c(c1)CCCN2C(=O)c1ccc(C(F)(F)F)cc1 : 2220

For reference, reported IC50 for O=C(c1ccco1)N1CCCc2cc(NS(=O)(=O)c3ccccc3)ccc21 stands at 1920

// field: IC50; key: CCCCc1ccc(S(=O)(=O)Nc2ccc3c(c2)CCCN3C(=O)c2ccco2)cc1 ; value = 7160

----------
Molecular target: Glucocorticoid receptor (Homo sapiens, UniProt P04150)
Sequence (P04150 whole entry): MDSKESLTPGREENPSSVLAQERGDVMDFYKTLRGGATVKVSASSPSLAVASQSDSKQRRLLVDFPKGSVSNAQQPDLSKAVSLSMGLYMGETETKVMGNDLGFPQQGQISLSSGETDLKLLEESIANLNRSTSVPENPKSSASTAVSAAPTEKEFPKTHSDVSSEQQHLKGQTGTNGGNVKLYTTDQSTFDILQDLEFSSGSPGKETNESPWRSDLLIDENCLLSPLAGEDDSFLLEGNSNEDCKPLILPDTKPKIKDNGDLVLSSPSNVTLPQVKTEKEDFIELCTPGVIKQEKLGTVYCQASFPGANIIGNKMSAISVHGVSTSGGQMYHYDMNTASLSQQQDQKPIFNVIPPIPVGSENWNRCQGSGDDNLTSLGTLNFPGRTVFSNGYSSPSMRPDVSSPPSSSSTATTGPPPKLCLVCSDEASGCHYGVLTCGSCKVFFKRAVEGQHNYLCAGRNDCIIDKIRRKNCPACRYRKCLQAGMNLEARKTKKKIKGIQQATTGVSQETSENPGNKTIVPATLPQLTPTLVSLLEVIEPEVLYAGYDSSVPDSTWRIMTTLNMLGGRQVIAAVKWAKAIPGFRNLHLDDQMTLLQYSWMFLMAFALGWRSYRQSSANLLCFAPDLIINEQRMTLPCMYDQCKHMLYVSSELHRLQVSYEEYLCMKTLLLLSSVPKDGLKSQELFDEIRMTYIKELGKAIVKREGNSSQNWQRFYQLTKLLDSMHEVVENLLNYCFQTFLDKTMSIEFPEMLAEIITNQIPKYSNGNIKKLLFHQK
Assay: Binding affinity to glucocorticoid receptor (unknown origin) by Lanthascreen TR-FRET competition binding assay
Parameter: IC50

1) O=C(c1ccco1)N1CCCc2cc(N(S(=O)(=O)c3cccs3)S(=O)(=O)c3cccs3)ccc21
> 50 µM
2) O=C(c1ccco1)N1CCCc2cc(NS(=O)(=O)c3ccc(C(F)(F)F)cc3)ccc21
> 50 µM
3) O=C(c1ccco1)N1CCCc2cc(NS(=O)(=O)c3ccc4c(c3)CCCC4)ccc21
1.22 µM

Recorded IC50 (compound O=C(c1ccco1)N1CCCc2cc(NS(=O)(=O)c3ccc(Cl)c(C(F)(F)F)c3)ccc21 ): 19.7 µM

Entry O=C(c1ccco1)N1CCCc2cc(NS(=O)(=O)CCc3ccccc3)ccc21 , IC50 reported as > 10 µM

# IC50 of O=C(c1ccco1)N1CCCc2cc(N(S(=O)(=O)c3ccc(-c4ccccc4)cc3)S(=O)(=O)c3ccc(-c4ccccc4)cc3)ccc21 = 2.29 µM

Record O=C(c1ccco1)N1CCCc2cc(NS(=O)(=O)c3ccc(Cl)c([N+](=O)[O-])c3)ccc21 . Reported IC50: 0.59 µM

Record summary for COc1ccc(C(=O)N2CCCc3cc(NS(=O)(=O)c4cc(Cl)c(C)cc4OC)ccc32)cc1 : reported IC50 = > 50 µM

Form: compound = Cc1ccc(S(=O)(=O)N(c2ccc3c(c2)CCCN3C(=O)c2ccco2)S(=O)(=O)c2ccc(C)cc2)cc1 ; IC50 = > 50 µM

The compound identified as COC(=O)c1ccc(C(=O)N2CCCc3cc(NS(=O)(=O)c4cc(Cl)c(C)cc4OC)ccc32)cc1 registered its IC50 at > 50 µM

Looking up COc1cc(C)c(Cl)cc1S(=O)(=O)Nc1ccc2c(c1)CCCN2C(=O)c1ccccc1 , I found its IC50 recorded as 1.91 µM

Short answer for COc1cc(C)c(Cl)cc1S(=O)(=O)Nc1ccc2c(c1)CCCN2C(=O)C1CCCCC1 : IC50 was > 50 µM

IC50 reported for this compound COc1ccc(S(=O)(=O)N(c2ccc3c(c2)CCCN3C(=O)c2ccco2)S(=O)(=O)c2ccc(OC)cc2)cc1 : > 50 µM

The compound identified as COc1ccc(C(=O)N2CCCc3cc(NS(=O)(=O)c4cc(Cl)c(C)cc4OC)ccc32)cc1OC registered its IC50 at 3.43 µM

----------
# reported pIC50; entries follow
Molecular target: Glucocorticoid receptor (Homo sapiens, UniProt P04150)
Sequence (P04150 whole entry): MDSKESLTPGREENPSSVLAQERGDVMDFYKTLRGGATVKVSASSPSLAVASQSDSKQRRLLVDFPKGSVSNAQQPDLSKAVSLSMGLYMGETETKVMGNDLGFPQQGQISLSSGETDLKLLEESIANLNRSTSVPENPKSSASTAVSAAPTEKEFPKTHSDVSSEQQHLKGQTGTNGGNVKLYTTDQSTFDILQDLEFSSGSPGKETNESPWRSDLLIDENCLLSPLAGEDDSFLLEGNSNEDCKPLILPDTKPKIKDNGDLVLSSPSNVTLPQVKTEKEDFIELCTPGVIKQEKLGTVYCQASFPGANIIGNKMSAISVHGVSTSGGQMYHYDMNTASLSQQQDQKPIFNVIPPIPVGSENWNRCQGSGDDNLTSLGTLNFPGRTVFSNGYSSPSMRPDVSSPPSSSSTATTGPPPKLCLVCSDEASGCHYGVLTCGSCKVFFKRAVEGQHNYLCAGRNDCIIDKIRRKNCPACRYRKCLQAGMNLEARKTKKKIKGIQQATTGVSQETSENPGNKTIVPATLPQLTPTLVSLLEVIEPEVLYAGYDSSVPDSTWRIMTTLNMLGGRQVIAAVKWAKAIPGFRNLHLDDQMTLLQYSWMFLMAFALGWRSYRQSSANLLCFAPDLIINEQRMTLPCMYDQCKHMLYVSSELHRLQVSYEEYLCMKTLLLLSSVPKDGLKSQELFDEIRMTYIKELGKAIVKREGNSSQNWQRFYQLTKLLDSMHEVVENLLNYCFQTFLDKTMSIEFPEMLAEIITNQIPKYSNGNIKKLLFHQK
Assay: Modulation of glucocorticoid receptor (unknown origin) transfected in human HeLa cells assessed as transrepression by measuring inhibition of TNF-alpha induced NF-kappaB signalling incubated for 18 hrs by dual-luciferase reporter based assay
Format: cell-based
Conceptually, pIC50 converts a concentration in mol/L into minus its log10.

Below: 2 molecules and their reported pIC50.
1) O=C(c1ccco1)N1CCCc2cc(N(S(=O)(=O)c3ccc(F)cc3)S(=O)(=O)c3ccc(F)cc3)ccc21
6.08
2) COC(=O)c1ccc(C(=O)N2CCCc3cc(NS(=O)(=O)c4cc(Cl)c(C)cc4OC)ccc32)cc1
6.15

Here is the next item to consider.
According to the records, this molecule COc1cc(C)c(Cl)cc1S(=O)(=O)Nc1ccc2c(c1)CCCN2C(=O)c1ncccn1 displays pIC50 of 6.89
